# target.of.assay: UniProt:Q8NER1
# assay.comment: Capsaicin Activation Assay (intracellular Ca2+, FLIPR)
# test.context: recombinant HEK293 cells expressing hTRPV1, 50 nM capsaicin

{"columns": ["entry.smiles", "target.of.assay", "modifier.sign", "IC50 (nM)"],
 "data": [
  ["CC1(C)C[C@@H](NC(=O)Nc2ccc3c(c2)NC(=O)CO3)c2ccccc2O1", "UniProt:Q8NER1", "=", 440],
  ["C[C@H]1Oc2c(NC(=O)N[C@@H]3CC(CF)(CF)Oc4cc(Cl)ccc43)cccc2NC1=O", "UniProt:Q8NER1", "=", 8],
  ["CC1(C)C[C@H](NC(=O)Nc2ccc3c(c2)NC(=O)CO3)c2cc(F)ccc2O1", "UniProt:Q8NER1", ">", 38000],
  ["Cn1c(=O)ccc2c(NC(=O)N[C@@H]3CCOc4c3cccc4C(F)(F)F)cccc21", "UniProt:Q8NER1", "=", 17],
  ["CN1C(=O)NCc2c(NC(=O)N[C@@H]3CC(C)(C)Oc4cc(OC(F)(F)F)ccc43)cccc21", "UniProt:Q8NER1", "=", 38],
  ["Cn1c(=O)ccc2c(NC(=O)N[C@@H]3CC(C)(C)Oc4ccc(F)cc43)cccc21", "UniProt:Q8NER1", "=", 21],
  ["CCC1(CC)C[C@@H](NC(=O)Nc2ccc3c(c2)NC(=O)CC3)c2ccccc2O1", "UniProt:Q8NER1", "=", 37],
  ["C[C@@]1(C(F)F)C[C@@H](NC(=O)Nc2ccc3c(c2)NC(=O)CC3)c2ccccc2O1", "UniProt:Q8NER1", "=", 160],
  ["CN1C(=O)NCc2c(NC(=O)N[C@@H]3CC(CF)(CF)Oc4cc(Cl)ccc43)cccc21", "UniProt:Q8NER1", "=", 36],
  ["Cn1c(=O)ccc2c(NC(=O)N[C@@H]3CC4(CCC4)Oc4ccc(F)cc43)cccc21", "UniProt:Q8NER1", "=", 19],
  ["CN1Cc2ccc(NC(=O)N[C@@H]3CC(CF)(CF)Oc4c(F)cccc43)cc2NC1=O", "UniProt:Q8NER1", "=", 350],
  ["CN1C(=O)NCc2c(NC(=O)N[C@@H]3C[C@](C)(CF)Oc4cc(Cl)ccc43)cccc21", "UniProt:Q8NER1", "=", 51],
  ["CC1(C)C[C@H](NC(=O)Nc2ccc3c(c2)NC(=O)CC3)c2cc(F)ccc2O1", "UniProt:Q8NER1", "=", 4900],
  ["CN1C(=O)NCc2c(NC(=O)N[C@@H]3CC(CF)(CF)Oc4cc(OC(F)(F)F)ccc43)cccc21", "UniProt:Q8NER1", "=", 120],
  ["CC1(C)C[C@@H](NC(=O)Nc2ccc3c(c2)NC(=O)N(CCO)C3)c2ccc(C(F)(F)F)nc2O1", "UniProt:Q8NER1", "=", 1500],
  ["CCC1(CC)C[C@@H](NC(=O)Nc2ccc3c(c2)NC(=O)CO3)c2ccc(C(F)(F)F)cc2O1", "UniProt:Q8NER1", "=", 110],
  ["Cn1c(=O)ccc2c(NC(=O)N[C@@H]3CC(C)(C)Oc4c3ccc(F)c4Cl)cccc21", "UniProt:Q8NER1", "=", 15],
  ["O=C1CCc2ccc(NC(=O)N[C@@H]3CC(CF)(CF)Oc4ccc(F)cc43)cc2N1", "UniProt:Q8NER1", "=", 170],
  ["CCC1(CC)C[C@@H](NC(=O)Nc2ccc3c(c2)NC(=O)CC3)c2cc(F)ccc2O1", "UniProt:Q8NER1", "=", 74],
  ["CC1(C)C[C@@H](NC(=O)Nc2ccc3c(c2)NC(=O)CO3)c2ccc(C(F)(F)F)cc2O1", "UniProt:Q8NER1", "=", 94]
]}

###

# target.of.assay: UniProt Q8NER1
# assay.comment: Capsaicin Activation Assay (intracellular Ca2+, FLIPR)
# test.context: recombinant HEK293 cells expressing hTRPV1, 50 nM capsaicin
pIC50: −log10 of the molar value.
Outcome: t for pIC50 of at least 7; f for anything lower.

{"columns": ["entry.smiles", "label"],
 "data": [
  ["O=C1COc2ccc(NC(=O)N[C@@H]3CCOc4cc(OC(F)(F)F)ccc43)cc2N1", "f"],
  ["Cn1c(=O)ccc2c(NC(=O)N[C@H]3CC4(CCC4)Oc4ccc(F)cc43)cccc21", "f"],
  ["CCC1(CC)C[C@@H](NC(=O)Nc2ccc3c(c2)NC(=O)N(CCO)C3)c2ccccc2O1", "t"],
  ["CN1C(=O)NCc2c(NC(=O)N[C@@H]3CCc4cc(C(C)(C)C)ccc43)cccc21", "t"],
  ["Cn1c(=O)ccc2c(NC(=O)N[C@@H]3CC(C)(C)Oc4c3ccc(F)c4F)cccc21", "t"],
  ["CN1C(=O)CCc2ccc(NC(=O)N[C@@H]3CC(C)(C)Oc4c3cccc4C(F)(F)F)cc21", "f"],
  ["Cn1c(=O)ccc2c(NC(=O)N[C@@H]3C[C@@](C)(C(F)(F)F)Oc4ccccc43)cccc21", "t"],
  ["Cn1c(=O)ccc2c(NC(=O)N[C@@H]3CC(CF)(CF)Oc4c3ccc(Cl)c4F)cccc21", "t"],
  ["O=C1CCc2ccc(NC(=O)N[C@@H]3CCc4cc(F)ccc43)cc2N1", "t"],
  ["CN1C(=O)CCc2ccc(NC(=O)N[C@@H]3CCc4cc(F)ccc43)cc21", "t"],
  ["O=C1CCc2ccc(NC(=O)N[C@@H]3CCOc4ccccc43)cc2N1", "f"],
  ["O=C1CCc2ccc(NC(=O)N[C@@H]3CC(CF)(CF)Oc4ccccc43)cc2N1", "t"],
  ["Cn1c(=O)ccc2c(NC(=O)N[C@@H]3C[C@](C)(C(F)F)Oc4ccccc43)cccc21", "t"]
]}

###

# target.of.assay: human TRPV1 (Homo sapiens (Human), UniProt Q8NER1)
# Sequence (Q8NER1 whole entry): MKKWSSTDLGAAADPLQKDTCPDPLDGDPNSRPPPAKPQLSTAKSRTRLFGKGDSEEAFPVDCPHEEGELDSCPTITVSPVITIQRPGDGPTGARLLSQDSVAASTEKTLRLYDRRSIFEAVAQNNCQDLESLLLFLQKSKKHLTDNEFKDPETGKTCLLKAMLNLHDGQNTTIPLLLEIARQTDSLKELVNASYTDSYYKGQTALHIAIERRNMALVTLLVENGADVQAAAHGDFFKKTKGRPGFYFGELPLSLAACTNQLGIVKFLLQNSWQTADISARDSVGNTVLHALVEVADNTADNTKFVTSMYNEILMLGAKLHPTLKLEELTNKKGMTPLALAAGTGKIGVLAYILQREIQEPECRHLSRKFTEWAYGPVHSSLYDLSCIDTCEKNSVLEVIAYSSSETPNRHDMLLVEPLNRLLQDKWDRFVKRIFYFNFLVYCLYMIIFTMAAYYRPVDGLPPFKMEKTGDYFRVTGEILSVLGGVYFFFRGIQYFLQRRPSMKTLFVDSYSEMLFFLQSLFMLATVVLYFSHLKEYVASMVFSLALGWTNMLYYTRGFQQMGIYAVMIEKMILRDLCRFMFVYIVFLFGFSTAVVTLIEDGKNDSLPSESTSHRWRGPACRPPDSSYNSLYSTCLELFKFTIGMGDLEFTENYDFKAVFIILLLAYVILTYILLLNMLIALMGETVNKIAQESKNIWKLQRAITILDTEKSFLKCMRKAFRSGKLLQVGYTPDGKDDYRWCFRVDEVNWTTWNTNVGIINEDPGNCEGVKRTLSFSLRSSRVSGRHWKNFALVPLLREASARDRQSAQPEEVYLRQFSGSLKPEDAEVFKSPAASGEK
# assay.comment: Acid Activation Assay (pH 5.0, intracellular Ca2+, FLIPR)
# Assay type: cell-based
# test.context: percentage of the maximal pH 5.0-induced response remaining; recombinant HEK293 hTRPV1 cells; maximum concentration tested 37.5 μM

{"columns": ["entry.smiles", "human TRPV1 H^+ (max % remain), %"],
 "data": [
  ["CN1Cc2ccc(NC(=O)N[C@@H]3C[C@](C)(C(F)(F)F)Oc4ccccc43)cc2NC1=O", 51],
  ["CN1Cc2ccc(NC(=O)N[C@@H]3CC(C)(C)Oc4cc(F)ccc43)cc2NC1=O", 50],
  ["Cn1c(=O)ccc2c(NC(=O)N[C@@H]3CC(C)(C)Oc4cc(C(F)(F)F)ccc43)cccc21", 50],
  ["CC1(C)C[C@@H](NC(=O)Nc2ccc3c(c2)NC(=O)N(CCO)C3)c2ccc(F)cc2O1", 8]
]}

###

# target.of.assay: human TRPV1 (Homo sapiens (Human))
# assay.comment: Acid Activation Assay (pH 5.0, intracellular Ca2+, FLIPR)
# Format: cell-based
# test.context: percentage of the maximal pH 5.0-induced response remaining; recombinant HEK293 hTRPV1 cells; maximum concentration tested 37.5 μM
Reported values of human TRPV1 H^+ (max % remain) for individual entries

{"columns": ["compound", "target.of.assay", "unit.string", "human TRPV1 H^+ (max % remain)"],
 "data": [
  ["CN1Cc2ccc(NC(=O)N[C@@H]3CCOc4cc(OC(F)(F)F)ccc43)cc2NC1=O [Example 195]", "human TRPV1 (Homo sapiens (Human))", "%", 49],
  ["CCCC1(CCC)C[C@@H](NC(=O)Nc2cccc3c2ccc(=O)n3C)c2cccc(F)c2O1 [Example 75]", "human TRPV1 (Homo sapiens (Human))", "%", 50],
  ["O=C1CCc2ccc(NC(=O)N[C@H]3CC(CF)(CF)Oc4cc(Cl)ccc43)cc2N1 [Example 217]", "human TRPV1 (Homo sapiens (Human))", "%", 50]
]}
